B1: PRPH (parent)
chain: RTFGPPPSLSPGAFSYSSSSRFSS

# Variants of: B1
# assay.name: protein stability index of a GFP-peptide fusion (GPS, HEK-293T) (PSI 1-6); higher = more stable;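 further: lentivirally expressed fusions sorted by FACS into six bins by GFP to DsRed ratio, PSI derived from sequencing read proportions per bin multiplied by bin number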
# test.settings: c terminus: a fixed tail appended
Catalogue of protein stability index values
When you answer, write just the number.

>  <biosequence>
RTFGPQPSLSPGAFSYSSSSRFSS [P6Q]

>  <protein stability index>
3.03

$$$$

Requested read-out: protein stability index. Entry: RTFGPPPSLSPGAESYSSSSRFSS [F14E]
4.21

Requested read-out: protein stability index. Entry: RTFGPPPSLSPGAFSYSSSSRHSS [F22H]
3.55

Requested read-out: protein stability index. Entry: RTFGPTPSLSPGAFSYSSSSRFSS [P6T]
2.71
